- test system: PI3K γ (Homo sapiens, UniProt P48736)
- Sequence (P48736 whole entry): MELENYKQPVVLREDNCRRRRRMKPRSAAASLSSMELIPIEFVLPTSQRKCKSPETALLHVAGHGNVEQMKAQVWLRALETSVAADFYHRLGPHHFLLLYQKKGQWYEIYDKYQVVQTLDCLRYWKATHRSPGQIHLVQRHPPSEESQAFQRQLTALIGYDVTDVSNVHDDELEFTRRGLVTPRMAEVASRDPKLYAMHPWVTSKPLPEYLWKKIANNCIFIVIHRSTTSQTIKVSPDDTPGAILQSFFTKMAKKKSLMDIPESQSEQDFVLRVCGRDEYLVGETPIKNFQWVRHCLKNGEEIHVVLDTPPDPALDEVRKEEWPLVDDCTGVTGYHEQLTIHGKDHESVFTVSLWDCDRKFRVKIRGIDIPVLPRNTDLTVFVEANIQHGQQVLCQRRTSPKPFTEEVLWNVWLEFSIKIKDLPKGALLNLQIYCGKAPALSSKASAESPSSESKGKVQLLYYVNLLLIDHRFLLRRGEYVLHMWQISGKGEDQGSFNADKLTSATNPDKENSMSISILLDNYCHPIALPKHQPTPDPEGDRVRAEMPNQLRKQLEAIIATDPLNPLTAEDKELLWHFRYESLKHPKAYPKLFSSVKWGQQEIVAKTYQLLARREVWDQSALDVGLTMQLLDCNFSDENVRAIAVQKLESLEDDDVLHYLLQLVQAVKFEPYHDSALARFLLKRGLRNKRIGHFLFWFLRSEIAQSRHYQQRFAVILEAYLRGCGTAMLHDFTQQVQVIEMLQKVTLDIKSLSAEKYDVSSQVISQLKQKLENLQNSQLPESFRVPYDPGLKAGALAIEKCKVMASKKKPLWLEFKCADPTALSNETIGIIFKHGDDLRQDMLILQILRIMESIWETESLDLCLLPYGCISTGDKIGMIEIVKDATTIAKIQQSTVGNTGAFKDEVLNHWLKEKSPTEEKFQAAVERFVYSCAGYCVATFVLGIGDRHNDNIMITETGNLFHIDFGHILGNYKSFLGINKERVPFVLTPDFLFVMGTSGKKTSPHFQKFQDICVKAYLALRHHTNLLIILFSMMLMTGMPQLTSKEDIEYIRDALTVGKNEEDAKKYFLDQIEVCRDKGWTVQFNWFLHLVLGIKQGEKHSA
pIC50: −log10 of the molar value.
measurement kind: pIC50

Sample records with pIC50:
# molecule, pIC50
rows = [
    ("N#Cc1nn(Cc2cc3ccccc3c(=O)n2-c2ccccc2F)c2ncnc(N)c12 [Compound 169]", "< 5.00"),
    ("Cc1cccc2cc([C@H](C)Nc3ncnc4[nH]cnc34)n(-c3ccccc3)c(=O)c12 [Compound 238]", "> 6.00"),
]

Request: Item under review: Cc1cccc2cc([C@H](C)Nc3ncnc4[nH]c(Cl)cc34)n(C3CC3)c(=O)c12 [Compound 280] . Reported pIC50?
Response: < 5.00

---

- assay explanation: embryo/fetal developmental toxicity study in rats
- test context: female, rat, in vivo, 35 mg/kg/day; pregnant rats, last day of dosing; read-out: mean AUCO24 hr at the NOAEL
measurement kind: AUC (ng·h/mL)
Note: unit ng·h/mL is implicit; provide only the numeric part.

Request: Item under review: C[C@H](Nc1ncnc2[nH]cnc12)c1cc2cccc(Cl)c2c(=O)n1-c1ccccc1 [Compound 292] . Reported AUC?
Response: 62200

---

- Test system: B cell
- assay explanation: B cell proliferation EC50 (Table 3)
- Format: cell-based
measurement kind: EC50

Request: Item under review: N#Cc1nn(Cc2cc3ccccc3c(=O)n2-c2ccccc2F)c2ncnc(N)c12 . Reported EC50?
Response: < 1000 nM

---

- assay explanation: embryo/fetal developmental toxicity study in rabbits
- test context: female, rabbit, in vivo, 75 mg/kg/day; pregnant rabbits, last day of dosing; read-out: mean AUCO24 hr at the NOAEL
measurement kind: AUC (ng·h/mL)
Note: unit ng·h/mL is implicit; provide only the numeric part.

Request: Item under review: C[C@H](Nc1ncnc2[nH]cnc12)c1cc2cccc(Cl)c2c(=O)n1-c1ccccc1 [Compound 292] . Reported AUC?
Response: 66200

---

- test system: PI3K δ (Homo sapiens, UniProt O00329)
- Sequence (O00329 whole entry, one chain of several): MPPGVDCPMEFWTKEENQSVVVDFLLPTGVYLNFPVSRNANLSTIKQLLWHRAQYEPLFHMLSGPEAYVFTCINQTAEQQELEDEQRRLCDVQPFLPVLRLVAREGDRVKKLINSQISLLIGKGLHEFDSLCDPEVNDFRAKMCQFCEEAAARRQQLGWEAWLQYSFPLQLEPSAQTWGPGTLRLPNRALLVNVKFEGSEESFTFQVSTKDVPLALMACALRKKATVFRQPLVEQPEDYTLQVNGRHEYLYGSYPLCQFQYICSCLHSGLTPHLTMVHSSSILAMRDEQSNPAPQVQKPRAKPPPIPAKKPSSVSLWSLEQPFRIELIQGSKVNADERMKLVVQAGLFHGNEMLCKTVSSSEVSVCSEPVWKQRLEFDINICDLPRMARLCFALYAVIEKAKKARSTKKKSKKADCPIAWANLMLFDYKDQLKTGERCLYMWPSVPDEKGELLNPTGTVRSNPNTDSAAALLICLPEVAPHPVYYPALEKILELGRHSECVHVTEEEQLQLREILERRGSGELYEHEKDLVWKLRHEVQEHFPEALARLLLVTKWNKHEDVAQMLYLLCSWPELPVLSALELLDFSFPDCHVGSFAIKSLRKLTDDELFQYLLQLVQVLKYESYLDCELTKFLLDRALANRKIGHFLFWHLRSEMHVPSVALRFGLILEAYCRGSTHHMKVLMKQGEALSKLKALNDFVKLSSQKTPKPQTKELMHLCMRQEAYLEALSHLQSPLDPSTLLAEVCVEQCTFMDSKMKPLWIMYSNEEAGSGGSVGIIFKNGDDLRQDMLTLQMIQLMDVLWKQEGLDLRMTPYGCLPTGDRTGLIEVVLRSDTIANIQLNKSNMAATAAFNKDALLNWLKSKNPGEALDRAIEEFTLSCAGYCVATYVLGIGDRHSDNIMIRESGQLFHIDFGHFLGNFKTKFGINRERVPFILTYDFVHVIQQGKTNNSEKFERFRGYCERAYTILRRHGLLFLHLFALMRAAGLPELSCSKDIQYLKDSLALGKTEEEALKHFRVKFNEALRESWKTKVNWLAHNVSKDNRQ
pIC50: −log10 of the molar value.
measurement kind: pIC50

Request: Item under review: Cc1ccccc1-n1c(Cn2nc(I)c3c(N)ncnc32)cc2cccc(C)c2c1=O . Reported pIC50?
Response: > 6.00

---

PI3K β (Homo sapiens) pIC50 data
Sequence (P42338 whole entry): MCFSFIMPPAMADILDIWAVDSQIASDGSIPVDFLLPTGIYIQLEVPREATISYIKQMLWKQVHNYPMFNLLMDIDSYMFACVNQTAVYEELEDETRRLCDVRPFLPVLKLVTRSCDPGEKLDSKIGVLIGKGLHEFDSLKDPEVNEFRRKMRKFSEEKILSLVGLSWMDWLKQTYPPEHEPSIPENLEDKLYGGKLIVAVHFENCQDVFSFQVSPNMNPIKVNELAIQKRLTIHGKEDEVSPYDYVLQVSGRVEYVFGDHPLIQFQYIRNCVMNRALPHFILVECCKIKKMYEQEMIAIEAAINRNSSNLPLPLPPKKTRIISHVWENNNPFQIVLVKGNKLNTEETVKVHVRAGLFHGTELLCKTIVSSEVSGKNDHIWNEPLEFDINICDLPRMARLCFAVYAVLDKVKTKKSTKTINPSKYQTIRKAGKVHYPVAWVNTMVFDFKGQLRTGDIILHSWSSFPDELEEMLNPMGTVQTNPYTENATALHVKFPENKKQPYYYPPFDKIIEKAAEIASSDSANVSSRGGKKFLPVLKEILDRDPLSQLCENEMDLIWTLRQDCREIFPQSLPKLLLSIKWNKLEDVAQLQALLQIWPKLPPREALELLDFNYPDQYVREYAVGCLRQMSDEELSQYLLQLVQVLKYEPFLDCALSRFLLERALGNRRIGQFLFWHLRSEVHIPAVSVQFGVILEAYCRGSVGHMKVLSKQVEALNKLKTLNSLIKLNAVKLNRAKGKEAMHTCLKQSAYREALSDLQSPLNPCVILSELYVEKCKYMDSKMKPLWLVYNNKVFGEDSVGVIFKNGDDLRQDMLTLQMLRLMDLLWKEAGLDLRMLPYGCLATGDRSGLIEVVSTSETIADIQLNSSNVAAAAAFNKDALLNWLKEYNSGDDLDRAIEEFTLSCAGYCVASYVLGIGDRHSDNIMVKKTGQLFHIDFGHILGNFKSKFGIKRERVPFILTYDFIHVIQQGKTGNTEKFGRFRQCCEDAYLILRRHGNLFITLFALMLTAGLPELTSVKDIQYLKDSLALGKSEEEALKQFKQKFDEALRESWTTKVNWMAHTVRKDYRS
Sequence (P27986 whole entry partner): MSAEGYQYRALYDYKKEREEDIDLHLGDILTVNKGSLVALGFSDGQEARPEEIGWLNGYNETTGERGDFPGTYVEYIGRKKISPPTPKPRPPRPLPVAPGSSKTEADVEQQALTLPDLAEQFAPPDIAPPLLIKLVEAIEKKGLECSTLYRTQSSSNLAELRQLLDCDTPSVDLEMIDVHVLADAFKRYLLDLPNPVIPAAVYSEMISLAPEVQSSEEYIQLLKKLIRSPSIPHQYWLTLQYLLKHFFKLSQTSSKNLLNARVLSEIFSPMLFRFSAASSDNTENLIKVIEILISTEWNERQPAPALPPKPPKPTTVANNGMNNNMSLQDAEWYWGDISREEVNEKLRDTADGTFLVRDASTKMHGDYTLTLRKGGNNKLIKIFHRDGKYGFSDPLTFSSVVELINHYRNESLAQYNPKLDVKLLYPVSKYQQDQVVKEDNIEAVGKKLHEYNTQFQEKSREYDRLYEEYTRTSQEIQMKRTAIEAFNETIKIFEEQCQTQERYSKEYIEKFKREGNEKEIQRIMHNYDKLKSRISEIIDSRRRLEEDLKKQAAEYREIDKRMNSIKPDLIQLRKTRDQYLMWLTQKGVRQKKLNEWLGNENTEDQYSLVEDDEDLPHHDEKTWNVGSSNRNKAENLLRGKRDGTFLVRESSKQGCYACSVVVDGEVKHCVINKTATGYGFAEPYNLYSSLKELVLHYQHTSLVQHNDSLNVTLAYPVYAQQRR
pIC50: −log10 of the molar value.

# molecule, pIC50
rows = [
    ("N#Cc1nn(Cc2cc3ccccc3c(=O)n2-c2ccccc2F)c2ncnc(N)c12", "< 5.00"),
]

Turning now to a further record.
Request: Observed pIC50 on PI3K β (Homo sapiens) for Cc1cccc2cc(C(C)Nc3ncnc4[nH]cnc34)n(C3CCN(C)CC3)c(=O)c12 (centres unmarked) , please.
Response: > 5.00
